species on record: Rattus norvegicus; experiment: DrugMatrix - Regimen: Daily Repeat; format: toxicity, organism-based, Sprague-Dawley; parameters: regimen Daily Repeat, gender Male, age 6-8 weeks; conditions: in vivo, po, 0 mg/kg, 120 h, tissue Plasma, route oral GAVAGE, dose level Control, time 5 day, vehicle .5 % CMC
measurement-kind: LACTATE DEHYDROGENASE (u/L)
Entry rule: numbers only, all in u/L.

Query: Consider the molecule CC1(C)[C@H]2CC[C@]1(C)C(=O)C2 [(-)-CAMPHOR] and give its measured LACTATE DEHYDROGENASE.
Response: 174

Query: Consider the molecule `Brc1ccccc1` and give its measured LACTATE DEHYDROGENASE.
Response: 85.33

Query: Consider the molecule CCOC(=O)OC(C)OC1=C(C(=O)Nc2ccccn2)N(C)S(=O)(=O)c2ccccc21 (centres undefined) and give its measured LACTATE DEHYDROGENASE.
Response: 85.33

Query: Consider the molecule CCc1ccc(C(=O)C(C)CN2CCCCC2)cc1 (centres undefined) and give its measured LACTATE DEHYDROGENASE.
Response: 259.67
